target: CSF-1R (Homo sapiens, UniProt P07333); construct: purchased Invitrogen PV3249 (lot 662393N); assay: HTRF biochemical assay, CSF-1R; settings: Table 4
pIC50: −log10 of the molar value.
observable: pIC50

CSF-1R (Homo sapiens, UniProt P07333) / pIC50 / Cc1nc(-c2ccc(C)c(NC(=O)c3cnc4cc(OCCCN(C(=O)OC(C)(C)C)C5COC5)ccn34)c2)no1 [Compound I-660] : value?
6.30 to 7.30

CSF-1R (Homo sapiens, UniProt P07333) / pIC50 / CCOc1ccc2ncc(C(=O)Nc3cc(-c4noc([C@H]5C[C@@H]5F)n4)ccc3C)n2c1 [Compound I-92] : value?
≥ 7.30

CSF-1R (Homo sapiens, UniProt P07333) / pIC50 / COC(=O)N1CC(c2nc(-c3ccc(Cl)c(NC(=O)c4cnc5ccccn45)c3)no2)C1 [Compound I-339] : value?
5.30 to 6.30

CSF-1R (Homo sapiens, UniProt P07333) / pIC50 / Cc1ccc(-c2noc(C3CC3F)n2)cc1NC(=O)c1cnc2cc(COC3CC(O)C3)ccn12 (stereo not shown) [Compound I-85] : value?
≥ 7.30

====

Field: IC50. Provide a value for each of the molecules that follow.
Target: CSF-1R (Homo sapiens, UniProt P07333)
Construct: purchased Invitrogen PV3249 (lot 662393N)
Assay: Caliper biochemical assay, CSF-1R
Details: Table 6
Description: Enzyme, substrate, and cofactors (ATP and Mn^2+) are combined in a well of a microtiter plate and incubated for 3 hours at 25° C. At the end of the incubation, the reaction is quenched by the addition of an EDTA-containing buffer. Substrate and product are separated electrophoretically using the microfluidic-based LabChip 3000 Drug Discovery System from Caliper Life Sciences* and quantitated by fluorescence intensity. […] • 1. […] Read plate LabChip 3000 Drug Discovery System […]

Entry COC(=O)N1CC(c2nc(-c3ccc(C)c(NC(=O)c4cnc5cc(C(F)F)ccn45)c3)no2)C1 [Compound I-135] : reported IC50 = ?
50 to 500 nM

Entry Cc1cc(C)cc(Nc2ccc3ncc(C(=O)Nc4cc(-c5noc([C@H]6C[C@@H]6F)n5)ccc4C)n3c2)c1 [Compound I-299] : reported IC50 = ?
≤ 50 nM

Entry COCCN1CC[C@H]1c1nc(-c2ccc(C)c(NC(=O)c3cnc4ccccn34)c2)no1 (racemic) [Compound I-179] : reported IC50 = ?
500 to 5000 nM

Entry Cc1nc(-c2ccc(C)c(NC(=O)c3cnc4ccc(N(C)C)cn34)c2)no1 [Compound I-205] : reported IC50 = ?
≤ 50 nM

Entry Cc1ccc(-c2noc(C3CC(F)C3)n2)cc1NC(=O)c1cnc2ccccn12 (stereo not shown) [Compound I-381] : reported IC50 = ?
≤ 50 nM

Entry Cc1ccc(-c2noc(-c3ccccn3)n2)cc1NC(=O)c1cnc2ccccn12 [Compound I-272] : reported IC50 = ?
50 to 500 nM

Entry Cc1ccc(-c2noc([C@H]3C[C@@H]3F)n2)cc1NC(=O)c1cnc2cc(COCC(C)(C)O)ccn12 [Compound I-71] : reported IC50 = ?
≤ 50 nM

====

assay: Three time point assay for plasma, brain and testes distribution after oral dosing; assay type: in vivo, rat; conditions: male, SD, plasma, 10 mg/kg; rat, oral dosing, time point 0.5 h; read-out: Plasma concentration
observable: concentration at 0.5 h (ng/mL)
The response must be a number in ng/mL with no trailing unit.

Entry `Cc1ccc(-c2noc([C@H]3C[C@@H]3F)n2)cc1NC(=O)c1cnc2cc(COCC(C)(C)O)ccn12` : reported concentration at 0.5 h = ?
1810

====

test: Three time point assay for plasma, brain and testes distribution after oral dosing; type: in vivo, rat; details: rat, oral dosing, time point 2 h
// returns no (0) unless Plasma concentration is strictly below 2000 ng/mL, in which case yes (1)

Does the reported Plasma concentration of `Cc1ccc(-c2noc(CC(=O)O)n2)cc1NC(=O)c1cnc2ccccn12` stay below 2000 ng/mL?
yes (1)

Does the reported Plasma concentration of Cc1ccc(-c2noc(CC(C)O)n2)cc1NC(=O)c1cnc2ccccn12 (racemic) stay below 2000 ng/mL?
yes (1)

Does the reported Plasma concentration of `Cc1ccc(-c2noc(C3(N)CC4(CC(F)(F)C4)C3)n2)cc1NC(=O)c1cnc2ccccn12` stay below 2000 ng/mL?
yes (1)

Does the reported Plasma concentration of Cc1ccc(-c2noc(C(C)NS(C)(=O)=O)n2)cc1NC(=O)c1cnc2ccccn12 (single isomer, unassigned) [Compound I-237] stay below 2000 ng/mL?
yes (1)

Does the reported Plasma concentration of `Cc1ccc(-c2noc([C@H]3CC(F)(F)CN3)n2)cc1NC(=O)c1cnc2ccccn12` stay below 2000 ng/mL?
no (0)

Does the reported Plasma concentration of `Cc1ccc(-c2noc([C@H]3C[C@@H]3F)n2)cc1NC(=O)c1cnc2cc(OC(C)C)ccn12` stay below 2000 ng/mL?
no (0)

Does the reported Plasma concentration of `COCCOCc1ccn2c(C(=O)Nc3cc(-c4noc([C@H]5C[C@@H]5F)n4)ccc3C)cnc2c1` stay below 2000 ng/mL?
no (0)

Does the reported Plasma concentration of Cc1ccc(-c2noc(CC(O)C(F)F)n2)cc1NC(=O)c1cnc2ccccn12 (stereo not shown) stay below 2000 ng/mL?
yes (1)

Does the reported Plasma concentration of `Cc1ccc(-c2noc([C@H]3C[C@@H]3F)n2)cc1NC(=O)c1cnc2ccc(C#N)cn12` stay below 2000 ng/mL?
yes (1)

====

biological target: CSF1R-NanoLuc fusion in HEK293 cells (Homo sapiens); construct: expressed in transfected cells; host or cells: HEK293, transient transfection; assay: NanoBRET cellular target engagement assay, CSF-1R; assay type: cell-based
Sequence (P07333 20-972): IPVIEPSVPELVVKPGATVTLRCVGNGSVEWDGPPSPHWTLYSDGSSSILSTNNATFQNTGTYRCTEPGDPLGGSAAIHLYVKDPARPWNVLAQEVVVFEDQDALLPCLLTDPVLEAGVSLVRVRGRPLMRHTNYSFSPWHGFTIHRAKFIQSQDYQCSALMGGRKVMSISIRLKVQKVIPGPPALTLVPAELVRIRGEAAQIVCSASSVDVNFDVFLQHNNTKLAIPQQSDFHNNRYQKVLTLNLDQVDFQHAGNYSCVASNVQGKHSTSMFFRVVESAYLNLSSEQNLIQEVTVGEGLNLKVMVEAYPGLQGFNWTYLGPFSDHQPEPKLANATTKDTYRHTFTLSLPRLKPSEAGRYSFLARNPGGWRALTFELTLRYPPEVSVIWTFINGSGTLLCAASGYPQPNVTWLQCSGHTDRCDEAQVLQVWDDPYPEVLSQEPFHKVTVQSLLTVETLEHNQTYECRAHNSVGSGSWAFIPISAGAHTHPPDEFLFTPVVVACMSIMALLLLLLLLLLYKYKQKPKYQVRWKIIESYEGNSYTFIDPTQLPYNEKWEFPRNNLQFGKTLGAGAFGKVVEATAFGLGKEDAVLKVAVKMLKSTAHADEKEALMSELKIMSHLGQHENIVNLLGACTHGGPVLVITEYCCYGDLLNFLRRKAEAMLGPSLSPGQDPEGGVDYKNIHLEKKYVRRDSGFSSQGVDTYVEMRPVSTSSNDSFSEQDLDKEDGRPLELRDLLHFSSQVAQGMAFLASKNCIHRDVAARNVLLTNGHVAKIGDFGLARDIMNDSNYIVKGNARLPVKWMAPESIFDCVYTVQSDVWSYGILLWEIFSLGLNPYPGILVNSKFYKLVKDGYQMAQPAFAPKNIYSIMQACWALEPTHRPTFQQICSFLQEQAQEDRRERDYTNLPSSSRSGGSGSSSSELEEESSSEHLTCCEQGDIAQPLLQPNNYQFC
observable: IC50

Entry Cc1ccc(-c2noc(CC(O)C(F)F)n2)cc1NC(=O)c1cnc2ccccn12 (stereo not drawn) : reported IC50 = ?
> 10 µM

Entry `Cc1ccc(-c2noc([C@H]3C[C@@H]3F)n2)cc1NC(=O)c1cnc2cc(COCC(C)(C)O)ccn12` : reported IC50 = ?
> 10 µM

Entry `Cc1ccc(-c2noc([C@H]3C[C@@H]3F)n2)cc1NC(=O)c1cnc2cc(OC(C)C)ccn12` : reported IC50 = ?
> 10 µM

====

experiment: Three time point assay for plasma, brain and testes distribution after oral dosing; type: in vivo, rat; settings: rat, oral dosing, time point 2 h
// returns f unless Testes concentration is strictly below 1000 ng/g, in which case t

Does the reported Testes concentration of Cc1ccc(-c2noc(CC(C)O)n2)cc1NC(=O)c1cnc2ccccn12 (racemic) stay below 1000 ng/g?
t

Does the reported Testes concentration of `Cc1ccc(-c2noc(C3(N)CC4(CC(F)(F)C4)C3)n2)cc1NC(=O)c1cnc2ccccn12` stay below 1000 ng/g?
t

Does the reported Testes concentration of `Cc1ccc(-c2noc([C@H]3C[C@@H]3F)n2)cc1NC(=O)c1cnc2cc(OC(C)C)ccn12` stay below 1000 ng/g?
f

Does the reported Testes concentration of `Cc1nc(-c2ccc(C)c(NC(=O)c3cnc4ccccn34)c2)no1` stay below 1000 ng/g?
f

Does the reported Testes concentration of `COCCOCc1ccn2c(C(=O)Nc3cc(-c4noc([C@H]5C[C@@H]5F)n4)ccc3C)cnc2c1` stay below 1000 ng/g?
t

Does the reported Testes concentration of `Cc1cc(C)cc(Nc2ccc3ncc(C(=O)Nc4cc(-c5noc([C@H]6C[C@@H]6F)n5)ccc4C)n3c2)c1` stay below 1000 ng/g?
t

====

Field: pIC50. Provide a value for each of the molecules that follow.
target: wtKIT (Homo sapiens, UniProt P10721); construct: 1888289AM in the reaction mixtures; experiment: HTRF biochemical assay, wtKIT (phosphorylation of a peptide substrate); details: Table 4
Sequence (P10721 26-976): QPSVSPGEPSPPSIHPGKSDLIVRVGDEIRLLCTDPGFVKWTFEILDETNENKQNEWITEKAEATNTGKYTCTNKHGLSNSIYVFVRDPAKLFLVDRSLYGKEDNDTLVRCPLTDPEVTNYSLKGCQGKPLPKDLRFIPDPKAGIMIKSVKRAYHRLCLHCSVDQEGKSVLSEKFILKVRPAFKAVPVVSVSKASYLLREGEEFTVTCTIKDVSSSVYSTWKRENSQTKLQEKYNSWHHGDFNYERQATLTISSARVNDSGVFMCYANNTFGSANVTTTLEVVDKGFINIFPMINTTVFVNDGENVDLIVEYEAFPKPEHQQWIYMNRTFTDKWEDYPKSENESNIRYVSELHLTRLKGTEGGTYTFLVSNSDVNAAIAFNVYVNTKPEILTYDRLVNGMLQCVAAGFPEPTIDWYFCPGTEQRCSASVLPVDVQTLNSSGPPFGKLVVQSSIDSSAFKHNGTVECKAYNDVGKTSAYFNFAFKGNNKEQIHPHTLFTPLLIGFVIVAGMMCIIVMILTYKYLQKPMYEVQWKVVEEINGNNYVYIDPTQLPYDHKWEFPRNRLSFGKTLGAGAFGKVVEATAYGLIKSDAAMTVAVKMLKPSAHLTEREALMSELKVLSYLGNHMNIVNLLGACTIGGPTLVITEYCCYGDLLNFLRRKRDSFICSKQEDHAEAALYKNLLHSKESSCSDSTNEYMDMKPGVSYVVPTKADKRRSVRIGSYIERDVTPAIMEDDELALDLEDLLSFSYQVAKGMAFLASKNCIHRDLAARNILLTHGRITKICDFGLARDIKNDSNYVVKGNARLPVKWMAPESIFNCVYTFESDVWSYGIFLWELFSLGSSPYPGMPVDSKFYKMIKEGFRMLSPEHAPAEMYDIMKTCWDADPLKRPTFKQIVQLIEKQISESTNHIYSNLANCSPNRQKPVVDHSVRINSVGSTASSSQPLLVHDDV
pIC50: −log10 of the molar value.

Entry Cc1ccc(-c2noc(CC(O)C(F)F)n2)cc1NC(=O)c1cnc2ccccn12 (stereo not shown) [Compound I-122] : reported pIC50 = ?
≥ 7.30

Entry CCCS(=O)(=O)N1CCC1c1nc(-c2ccc(C)c(NC(=O)c3cnc4ccccn34)c2)no1 (stereo not shown) : reported pIC50 = ?
≥ 7.30

Entry `Cc1ccc(-c2ncon2)cc1NC(=O)c1cnn2ccccc12` : reported pIC50 = ?
6.30 to 7.30

Entry `CCOc1ccc2ncc(C(=O)Nc3cc(-c4noc([C@H]5C[C@@H]5F)n4)ccc3C)n2c1` : reported pIC50 = ?
≥ 7.30

Entry `CCNc1ccn2c(C(=O)Nc3cc(-c4ncon4)ccc3C)cnc2c1` : reported pIC50 = ?
≥ 7.30

Entry `COC(=O)N1CC(c2nc(-c3ccc(C)c(NC(=O)c4cnc5cc(OCC(C)(C)O)ccn45)c3)no2)C1` : reported pIC50 = ?
≥ 7.30

Entry `Cc1ccc(-c2noc([C@H]3CC(F)(F)CN3)n2)cc1NC(=O)c1cnn2ccccc12` : reported pIC50 = ?
≥ 7.30

Entry `CCOc1ccn2c(C(=O)Nc3cc(-c4noc(C[C@H](O)C(F)F)n4)ccc3C)cnc2c1` : reported pIC50 = ?
≥ 7.30

Entry `COc1ccn2c(C(=O)Nc3cc(-c4noc(C)n4)ccc3C)cnc2c1` : reported pIC50 = ?
≥ 7.30

Entry `COc1ccn2c(C(=O)Nc3cc(-c4noc(C[C@@H](C)O)n4)ccc3C)cnc2c1` : reported pIC50 = ?
≥ 7.30

Entry `Cc1ccc(-c2noc([C@H]3C[C@@H]3F)n2)cc1NC(=O)c1cnc2cc(COCCS(C)(=O)=O)ccn12` : reported pIC50 = ?
≥ 7.30

Entry `Cc1ccc(-c2noc([C@H]3C[C@@H]3F)n2)cc1NC(=O)c1cnn2ccc(OC(C)C)cc12` : reported pIC50 = ?
≥ 7.30

Entry Cc1ccn2c(C(=O)Nc3cc(-c4noc(CC5CCCO5)n4)ccc3C)cnc2c1 (stereo not shown) : reported pIC50 = ?
≥ 7.30

Entry `Cc1ccc(-c2noc(N3CC(F)(F)C3)n2)cc1NC(=O)c1cnc2cc(F)c(Cl)cn12` : reported pIC50 = ?
6.30 to 7.30

Entry `Cc1ccc(-c2noc([C@H]3CCN3S(=O)(=O)c3cccnc3)n2)cc1NC(=O)c1cnc2ccccn12` : reported pIC50 = ?
6.30 to 7.30

Entry `Cc1ccc(-c2noc(C[C@H](O)C(F)F)n2)cc1NC(=O)c1cnc2ccc(-c3cscn3)cn12` : reported pIC50 = ?
≥ 7.30
